- Tested on: P388 leukemia ip, CD2F1 mice, survival T/C
- ASSAY SUMMARY: NCI In Vivo Anticancer Drug Screen. Data for tumor model P388 Leukemia (intraperitoneal) in CD2F1 (CDF1) mice
- ASSAY CONTEXT: endpoint: median survival time; dose: 200.0 mg/kg/injection; schedule: Q01DX009 (ip); vehicle: water; higher = longer survival
Inconclusive results and toxic doses are left out.
MEASURED ENDPOINT: T/C

COMPOUND | MEASURED ENDPOINT | VAL
OCC#CCOCC(O)CCl (centres undefined) | T/C | 103 % of control
Cc1cc(C)c(COCc2cc(C)c(C)cc2C)cc1C | T/C | 106 % of control
CC(=O)ON(C(C)=O)c1ccc(C(=O)OC2(C)CC(C)(C)[N+]([O-])=N2)cc1 (centres undefined) (tested in a mixture with another compound) | T/C | 106 % of control
Cc1cc(C(=O)O)c(C)c(S(=O)(=O)O)c1 | T/C | 99 % of control
